- Tested on: Escherichia coli TOP10
- protocol summary: shrunken log2 fold change of peptide-encoding DNA abundance (4.5 h post-induction vs induction); higher = less antimicrobial activity (less host growth inhibition)
- run conditions: time post-induction: 4.5 h; library: site-saturation at positions 5, 18, 19, 20
experimental endpoint: shrunken log2 fold change
Answers are plain numbers.

Example cases with answers are listed next.
[
  {
    "seq string": "RRIRRRPPRLPRPRPRPMHNPRP",
    "shrunken log2 fold change": 0.384
  },
  {
    "seq string": "RRIRSRPPRLPRPRPRPWGGPRP",
    "shrunken log2 fold change": 0.27
  },
  {
    "seq string": "RRIRWRPPRLPRPRPRPESWPRP",
    "shrunken log2 fold change": 1.05
  },
  {
    "seq string": "RRIRGRPPRLPRPRPRPFDAPRP",
    "shrunken log2 fold change": -0.00556
  },
  {
    "seq string": "RRIRPRPPRLPRPRPRPHAHPRP",
    "shrunken log2 fold change": 0.00207
  }
]

// batch mode: one shrunken log2 fold change value per listed entry
1. RRIRHRPPRLPRPRPRPFNMPRP
2. RRIRWRPPRLPRPRPRPFCNPRP
3. RRIRMRPPRLPRPRPRPYPGPRP
4. RRIRRRPPRLPRPRPRPTMGPRP
5. RRIRVRPPRLPRPRPRPTDPPRP
6. RRIRGRPPRLPRPRPRPTANPRP

1. -0.0933
2. -0.24
3. 0.0814
4. 0.0489
5. 0.328
6. 1.09

====

- Tested on: Escherichia coli TOP10
- protocol summary: shrunken log2 fold change of peptide-encoding DNA abundance (4.5 h post-induction vs induction); higher = less antimicrobial activity (less host growth inhibition)
- run conditions: time post-induction: 4.5 h; library: site-saturation at positions 5, 18, 19, 20
Please assign a class to every record based on measured shrunken log2 fold change, with ranges lower bin: < -0.1; middle bin: ≥ -0.1 and < 0.03; upper bin: ≥ 0.03

Which class does RRIRNRPPRLPRPRPRPVKIPRP fall in? upper bin

Band for RRIRERPPRLPRPRPRPHYAPRP ? lower bin

Note: place this sequence into its band. Item: RRIRGRPPRLPRPRPRPLSLPRP upper bin

Please report the category associated with RRIRYRPPRLPRPRPRPQNAPRP , nothing else. lower bin

Bin this entry: RRIRQRPPRLPRPRPRPLVRPRP upper bin

Which bin should I file RRIRPRPPRLPRPRPRPTGYPRP under? lower bin

Which class is correct for the following sequence? RRIRKRPPRLPRPRPRPQDAPRP middle bin

Could you tell me which band RRIRMRPPRLPRPRPRPQFDPRP belongs to? middle bin

Bin? RRIRHRPPRLPRPRPRPGSIPRP lower bin

Which bin, given its shrunken log2 fold change, does RRIRMRPPRLPRPRPRPDLEPRP occupy? upper bin

Bin? RRIRKRPPRLPRPRPRPKNQPRP upper bin

Exam item: assign RRIRRRPPRLPRPRPRPLMKPRP to the correct category. lower bin

# bin lookup: classify RRIRARPPRLPRPRPRPKNSPRP by its shrunken log2 fold change middle bin

Band assignment needed for RRIRGRPPRLPRPRPRPQKGPRP please. upper bin

Lab note: sort RRIRRRPPRLPRPRPRPGNRPRP into the matching shrunken log2 fold change band. lower bin

Hi, small favor: classify RRIRHRPPRLPRPRPRPSMVPRP by its shrunken log2 fold change when you get a moment. lower bin

====

- Test system: Escherichia coli TOP10
- protocol summary: shrunken log2 fold change of peptide-encoding DNA abundance (4.5 h post-induction vs induction); higher = less antimicrobial activity (less host growth inhibition)
- run conditions: time post-induction: 4.5 h; library: site-saturation at positions 5, 18, 19, 20
Lab note: anything with shrunken log2 fold change at or over 0.08 counts as 1 (yes); the rest go in 0 (no).

[
  {
    "seq string": "RRIRERPPRLPRPRPRPQFGPRP",
    "class name": "1 (yes)"
  },
  {
    "seq string": "RRIRFRPPRLPRPRPRPGVYPRP",
    "class name": "0 (no)"
  },
  {
    "seq string": "RRIRCRPPRLPRPRPRPRRCPRP",
    "class name": "1 (yes)"
  },
  {
    "seq string": "RRIRHRPPRLPRPRPRPECKPRP",
    "class name": "0 (no)"
  },
  {
    "seq string": "RRIRWRPPRLPRPRPRPMRMPRP",
    "class name": "1 (yes)"
  }
]

Confirm if shrunken log2 fold change reported for the sequence RRIRNRPPRLPRPRPRPCCWPRP is 0.08 or above. 0 (no)

Test whether the sequence RRIRVRPPRLPRPRPRPTPDPRP records shrunken log2 fold change of 0.08 or higher. 1 (yes)

====

I'd appreciate it if you could supply shrunken log2 fold change values for the items below.
- Tested on: Escherichia coli TOP10
- protocol summary: shrunken log2 fold change of peptide-encoding DNA abundance (4.5 h post-induction vs induction); higher = less antimicrobial activity (less host growth inhibition)
- run conditions: time post-induction: 4.5 h; library: site-saturation at positions 5, 18, 19, 20
Give bare numbers.

[
  {
    "seq string": "RRIRLRPPRLPRPRPRPIMKPRP",
    "test target": "Escherichia coli TOP10",
    "shrunken log2 fold change": -0.489
  },
  {
    "seq string": "RRIRSRPPRLPRPRPRPEGQPRP",
    "test target": "Escherichia coli TOP10",
    "shrunken log2 fold change": 0.193
  },
  {
    "seq string": "RRIRVRPPRLPRPRPRPWNPPRP",
    "test target": "Escherichia coli TOP10",
    "shrunken log2 fold change": -0.0803
  }
]

# batch: return shrunken log2 fold change for each of the 6 sequences below
1. RRIRCRPPRLPRPRPRPWTSPRP
2. RRIRFRPPRLPRPRPRPQFQPRP
3. RRIRERPPRLPRPRPRPWYVPRP
4. RRIRFRPPRLPRPRPRPNNPPRP
5. RRIRMRPPRLPRPRPRPCWGPRP
6. RRIRERPPRLPRPRPRPKTKPRP

-0.419
0.0151
-0.612
-0.625
-0.078
-0.00738

Batch request: shrunken log2 fold change per item, same order as input.
1. RRIRGRPPRLPRPRPRPLHDPRP
2. RRIRERPPRLPRPRPRPDSYPRP

[0.748, -0.00865]

Go through the list and state shrunken log2 fold change for each entry.
1. RRIRRRPPRLPRPRPRPCQSPRP
2. RRIRIRPPRLPRPRPRPMGMPRP
3. RRIRERPPRLPRPRPRPPQIPRP
4. RRIRMRPPRLPRPRPRPRHFPRP

1: 0.0448; 2: -0.253; 3: 0.15; 4: 0.00681

List shrunken log2 fold change for every entry below, keeping the order given.
1. RRIRVRPPRLPRPRPRPTIFPRP
2. RRIRIRPPRLPRPRPRPYYEPRP

[-0.469, -1.06]

Would you be so kind as to report shrunken log2 fold change for each listed record?
1. RRIRERPPRLPRPRPRPYGLPRP
2. RRIRGRPPRLPRPRPRPHIEPRP
3. RRIRRRPPRLPRPRPRPGPCPRP
4. RRIRSRPPRLPRPRPRPRCYPRP
5. RRIRPRPPRLPRPRPRPKGRPRP

1. -0.0303
2. 1.15
3. 0.0678
4. -0.107
5. -0.086

Provide shrunken log2 fold change values for the following items, in order.
1. RRIRFRPPRLPRPRPRPIEPPRP
2. RRIRWRPPRLPRPRPRPKYTPRP
3. RRIRHRPPRLPRPRPRPNGHPRP
4. RRIRARPPRLPRPRPRPIYLPRP
5. RRIRARPPRLPRPRPRPHNMPRP
6. RRIRERPPRLPRPRPRPTLAPRP
7. RRIRFRPPRLPRPRPRPPAIPRP
8. RRIRPRPPRLPRPRPRPRLTPRP

0.242
-0.315
-0.0552
-0.152
-0.446
0.269
0.363
0.293

Provide reported shrunken log2 fold change for each item, in the same order as listed.
1. RRIRERPPRLPRPRPRPCKWPRP
2. RRIRTRPPRLPRPRPRPIPQPRP

[0.0276, 0.284]

====

Kindly state shrunken log2 fold change for each of the entries shown.
- Tested on: Escherichia coli TOP10;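 also: peptides expressed intracellularly from a pBAD plasmid library in pooled LB shake-flask culture, induced with 0.3% L-arabinose, DNA abundance read by NGS, three biological replicates, DESeq2 with apeglm shrinkage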
- protocol summary: shrunken log2 fold change of peptide-encoding DNA abundance (4.5 h post-induction vs induction); higher = less antimicrobial activity (less host growth inhibition)
- run conditions: time post-induction: 4.5 h; library: site-saturation at positions 5, 18, 19, 20
One number for each entry.

See these solved cases before continuing.
[
  {
    "seq string": "RRIRTRPPRLPRPRPRPNTAPRP",
    "shrunken log2 fold change": -0.0235
  },
  {
    "seq string": "RRIRPRPPRLPRPRPRPFDGPRP",
    "shrunken log2 fold change": -0.214
  },
  {
    "seq string": "RRIRIRPPRLPRPRPRPPAVPRP",
    "shrunken log2 fold change": 0.279
  },
  {
    "seq string": "RRIRNRPPRLPRPRPRPKADPRP",
    "shrunken log2 fold change": -0.0273
  }
]

# batch size: 4; output shrunken log2 fold change per entry
1. RRIRRRPPRLPRPRPRPWICPRP
2. RRIRQRPPRLPRPRPRPCLIPRP
3. RRIRVRPPRLPRPRPRPTDYPRP
4. RRIRYRPPRLPRPRPRPNSCPRP

1: -0.0987; 2: -0.0017; 3: -0.479; 4: 0.0432
